Give measured self-splicing fitness (ln) for each item. Keep answers brief.
assay: self-splicing fitness, log relative to wild type (ln ratio); higher = more splicing; Tetrahymena group I intron in knt gene, E. coli kanamycin selection, DiMSum; sequences stand for … in CUCUCU…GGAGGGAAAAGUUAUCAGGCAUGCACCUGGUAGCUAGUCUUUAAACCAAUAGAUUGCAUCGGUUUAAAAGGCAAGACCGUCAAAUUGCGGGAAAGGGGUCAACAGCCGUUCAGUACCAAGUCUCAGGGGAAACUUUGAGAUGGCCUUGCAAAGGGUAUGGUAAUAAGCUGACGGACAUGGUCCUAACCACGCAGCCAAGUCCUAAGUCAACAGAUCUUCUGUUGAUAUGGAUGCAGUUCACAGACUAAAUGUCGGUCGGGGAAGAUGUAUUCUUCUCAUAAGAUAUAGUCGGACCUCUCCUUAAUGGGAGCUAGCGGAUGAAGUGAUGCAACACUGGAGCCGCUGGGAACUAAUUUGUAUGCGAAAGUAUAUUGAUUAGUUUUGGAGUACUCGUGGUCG; conditions: 30 °C;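 also: selection with 25 µg/mL kanamycin versus none on LB agar overnight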
Numbers only.

Take a look at these entries with their results.
GGUAAGCAAUAUUACGCGCG; -0.623
AGCUAGCAAUAUUACGAGUG; -0.877
AACUAGCAAUAUUACGCUGC; -2.59
CAGAAGCAAUAUUACGCACG; -0.596
UUCAAGCAAUAUUACGGGAU; -3.11
UAUGAGCAAUAUUACGCUGA; -2.75

For every item in the list below, what is its measured self-splicing fitness (ln)?
1. GCGGAGCAAUAUUACGUGGA
2. UUUUAGCAAUAUUACGGUAG
3. AAGCAGCAAUAUUACGCACU
4. CAAAAGCAAUAUUACGACCC
5. UUUGAGCAAUAUUACGAUCG
6. UGUAAGCAAUAUUACGAAGG

1: -3.37; 2: -1.6; 3: 0.0285; 4: -1.54; 5: -2.23; 6: -2.14

For every item in the list below, what is its measured self-splicing fitness (ln)?
1. GUUGAGCAAUAUUACGGAUA
2. CGCCAGCAAUAUUACGCAAG
3. GCGUAGCAAUAUUACGCCGC
4. GUUUAGCAAUAUUACGACAU
5. UGGUAGCAAUAUUACGCGCG

1. -0.148
2. -1.03
3. -2.36
4. -0.224
5. 0.0906

For every item in the list below, what is its measured self-splicing fitness (ln)?
1. ACCUAGCAAUAUUACGGCUA
2. CUUGAGCAAUAUUACGUGAA

1. -2.93
2. -3.07

Entry source: the supplement of paper PMC7877785
